# Test system: Diabrotica balteata
# Assay overview: Transovarial effects on Diabrotica balteata adults fed on sprayed bean plants (% egg mortality)
# Format: in vivo
# Condition notes: Diabrotica balteata; 10 ppm; egg laying period 4; read-out: % egg mortality: on egg laying period 4
Measured property: mortality at 10 ppm (%)
Express it in %; write the number only.

// below: answered molecules
| Molecule | mortality at 10 ppm, % |
| --- | --- |
| O=C(NC(=O)c1c(F)cccc1F)Nc1ccc(Cl)cc1 [Dimilin, Diflubenzuron] | 10 |
| O=C(NC(=O)c1c(F)cccc1F)Nc1ccc(Oc2ccc(C(F)(F)F)cc2Cl)cc1F [Cascade, Flufenoxuron] | 10 |
| COc1cccc(C(=O)NN(C(=O)c2cc(C)cc(C)c2)C(C)(C)C)c1C [Intrepid, Methoxyfenozide] | 7 |

Kindly review the next molecule as well.
query: Please list mortality at 10 ppm recorded for the molecule CCc1ccc(C(=O)NN(C(=O)c2cc(C)cc(C)c2)C(C)(C)C)cc1 [Mimic, Tebufenozide]
result: 11

* * *

Readings of Spray interval for the listed molecules
# System: Diabrotica balteata
# Assay overview: Transovarial effects on Diabrotica balteata adults fed on sprayed bean plants (% egg mortality)
# Assay type: in vivo
# Condition notes: Rate 12.5 g AI/ha
Supply the numeric figure in days, leaving out any unit text.

Solved cases (3 shown):
| Molecule | Unit string | Spray interval |
| --- | --- | --- |
| O=C(NC(=O)c1c(F)cccc1F)Nc1cc(Cl)c(OC(F)(F)C(F)F)c(Cl)c1 | days | 5 |
| O=C(NC(=O)c1c(F)cccc1F)Nc1ccc(Oc2ccc(C(F)(F)F)cc2Cl)cc1F | days | 7 |
| O=C(NC(=O)c1c(F)cccc1F)Nc1ccc(OC(F)(F)C(F)OC(F)(F)F)c(Cl)c1 (single isomer, unassigned; (+)) | days | 10 |

query: Tell me its Spray interval given O=C(NC(=O)c1c(F)cccc1F)Nc1cc(Cl)c(OC(F)(F)C(F)C(F)(F)F)cc1Cl (stereo not shown) as the entry.
result: 7

* * *

# System: Diabrotica balteata
# Assay overview: Transovarial effects on Diabrotica balteata adults fed on sprayed bean plants (% egg mortality)
# Format: in vivo
# Condition notes: Diabrotica balteata; 50 ppm; egg laying period 3; read-out: % egg mortality: on egg laying period 3
Measured property: mortality at 50 ppm (%)
Please respond with the number in % and leave the unit unwritten.

Examples with their reported mortality at 50 ppm follow.
| Compound | Observed value |
| --- | --- |
| O=C(NC(=O)c1c(F)cccc1F)Nc1ccc(OC(F)(F)C(F)OC(F)(F)F)c(Cl)c1 (single isomer, unassigned; (+)) [Rimon] | 100 |
| O=C(NC(=O)c1c(F)cccc1F)Nc1cc(Cl)c(OC(F)(F)C(F)F)c(Cl)c1 [Consult, Hexaflumuron] | 15 |
| O=C(NC(=O)c1c(F)cccc1F)Nc1cc(Cl)c(OC(F)(F)C(F)C(F)(F)F)cc1Cl (centres unmarked) [Match, Lufenuron] | 96 |
| O=C(NC(=O)c1c(F)cccc1F)Nc1ccc(Oc2ccc(C(F)(F)F)cc2Cl)cc1F [Cascade, Flufenoxuron] | 100 |
| O=C(NC(=O)c1c(F)cccc1F)Nc1ccc(Cl)cc1 [Dimilin, Diflubenzuron] | 3 |
| COc1cccc(C(=O)NN(C(=O)c2cc(C)cc(C)c2)C(C)(C)C)c1C [Intrepid, Methoxyfenozide] | 10 |
| CCc1ccc(C(=O)NN(C(=O)c2cc(C)cc(C)c2)C(C)(C)C)cc1 [Mimic, Tebufenozide] | 10 |

query: Supply reported mortality at 50 ppm belonging to this compound: O=C(NC(=O)c1c(F)cccc1F)Nc1cc(Cl)c(F)c(Cl)c1F [Nomolt, Teflubenzuron]
result: 14
